Cited source for all entries: ChEMBL document CHEMBL4145464

- Target System: 3',5'-cyclic-AMP phosphodiesterase 4D (Homo sapiens)
- Method Description: Inhibition of human PDE4D2 catalytic domain (86 to 413 residues) expressed in Escherichia coli strain BL21 using [3H]cAMP as substrate after 15 mins by liquid scintillation counter analysis
Metric: IC50 (µM)

compound=CC1(C)C=Cc2c(c3c(c4c(=O)cc(-c5ccc(O)cc5O)oc24)OC(C)(C)CC3)O1 unit_of_measurement=µM recorded_result=0.87
compound="CC(C)=CCc1c(O)cc(O)c2c(=O)c3c(oc12)-c1ccc(O)cc1OC3C=C(C)C (stereo unspecified)" unit_of_measurement=µM recorded_result=0.04
compound=C/C(C=O)=C\Cc1c(-c2ccc(O)cc2O)oc2c3c(cc(O)c2c1=O)OC(C)(C)C=C3 unit_of_measurement=µM recorded_result=9.21
compound=CC(C)=CCc1c(O)cc2oc(-c3ccc(O)cc3O)c(CC=C(C)C)c(=O)c2c1O unit_of_measurement=µM recorded_result=0.26
compound=CC(C)=C[C@@H]1Oc2cc(O)ccc2-c2oc3c4c(cc(O)c3c(=O)c21)OC(C)(C)C=C4 unit_of_measurement=µM recorded_result=0.25
compound=CC(=O)Oc1ccc2c(c1)O[C@H](C=C(C)C)c1c-2oc2c3c(cc(O)c2c1=O)OC(C)(C)C=C3 unit_of_measurement=µM recorded_result=4.89

====

- Target System: Dual specificity calcium/calmodulin-dependent 3',5'-cyclic nucleotide phosphodiesterase 1B (Homo sapiens, UniProt Q01064)
- Sequence (Q01064 whole entry, the tested form may be a part): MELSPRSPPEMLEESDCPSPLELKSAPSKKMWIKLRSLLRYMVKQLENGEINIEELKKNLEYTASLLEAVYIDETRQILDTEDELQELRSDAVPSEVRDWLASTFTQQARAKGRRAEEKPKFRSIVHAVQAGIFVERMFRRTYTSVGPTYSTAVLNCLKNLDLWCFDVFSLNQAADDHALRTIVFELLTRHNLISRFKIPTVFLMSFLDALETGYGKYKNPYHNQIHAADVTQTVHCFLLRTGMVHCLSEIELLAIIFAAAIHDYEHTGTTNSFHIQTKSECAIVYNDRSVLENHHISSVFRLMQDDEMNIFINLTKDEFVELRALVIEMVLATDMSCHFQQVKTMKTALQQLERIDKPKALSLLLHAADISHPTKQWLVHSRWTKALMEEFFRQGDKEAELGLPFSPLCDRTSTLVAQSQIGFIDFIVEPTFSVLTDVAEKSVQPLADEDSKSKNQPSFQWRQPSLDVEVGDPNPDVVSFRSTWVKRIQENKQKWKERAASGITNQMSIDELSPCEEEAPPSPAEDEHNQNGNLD
- Method Description: Inhibition of human PDE1B2 catalytic domain (10 to 487 residues) expressed in Escherichia coli strain BL21 using [3H]cAMP as substrate after 15 mins by liquid scintillation counter analysis
pIC50: −log10 of the molar value.
Metric: pIC50

mol=CC(C)=C[C@H]1Oc2cc(O)ccc2-c2oc3c4c(cc(O)c3c(=O)c21)OC(C)(C)C=C4 metric=pIC50 recorded_result=6.52

====

- Target System: 3',5'-cyclic-AMP phosphodiesterase 4D (Homo sapiens, UniProt Q08499)
- Sequence (Q08499 whole entry, the tested form may be a part): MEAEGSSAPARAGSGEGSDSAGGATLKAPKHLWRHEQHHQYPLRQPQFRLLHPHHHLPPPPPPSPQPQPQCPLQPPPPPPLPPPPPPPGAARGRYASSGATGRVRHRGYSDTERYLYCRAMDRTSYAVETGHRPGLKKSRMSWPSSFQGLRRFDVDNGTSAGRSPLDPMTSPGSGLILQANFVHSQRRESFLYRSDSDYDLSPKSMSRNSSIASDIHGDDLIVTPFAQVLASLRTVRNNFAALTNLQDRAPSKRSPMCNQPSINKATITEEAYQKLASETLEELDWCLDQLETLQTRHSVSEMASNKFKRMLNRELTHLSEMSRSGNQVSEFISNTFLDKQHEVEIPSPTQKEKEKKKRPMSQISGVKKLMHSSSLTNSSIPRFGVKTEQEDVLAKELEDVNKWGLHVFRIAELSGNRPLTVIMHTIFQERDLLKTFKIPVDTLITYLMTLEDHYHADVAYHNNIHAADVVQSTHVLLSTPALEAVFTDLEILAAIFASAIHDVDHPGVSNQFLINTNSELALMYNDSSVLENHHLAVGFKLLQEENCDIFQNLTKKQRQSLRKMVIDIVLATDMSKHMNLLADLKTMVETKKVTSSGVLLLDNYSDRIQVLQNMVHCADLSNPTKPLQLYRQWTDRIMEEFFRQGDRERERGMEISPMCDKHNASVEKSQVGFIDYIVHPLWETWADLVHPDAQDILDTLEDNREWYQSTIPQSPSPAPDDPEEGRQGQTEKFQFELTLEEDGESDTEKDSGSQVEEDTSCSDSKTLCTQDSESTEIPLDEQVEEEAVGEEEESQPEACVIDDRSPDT
- Method Description: Inhibition of human PDE4D2 catalytic domain (86 to 413 residues) expressed in Escherichia coli strain BL21 using [3H]cAMP as substrate after 15 mins by liquid scintillation counter analysis
pIC50: −log10 of the molar value.
pIC50 values by entry
Metric: pIC50

compound="CC(C)=CC1Oc2cc(O)ccc2-c2oc3cc(O)cc(O)c3c(=O)c21 (configuration not stated)" target_system="3',5'-cyclic-AMP phosphodiesterase 4D (Homo sapiens, UniProt Q08499)" metric=pIC50 recorded_result=6.40
compound="CC(C)=CCc1c(-c2ccc(O)cc2O)oc2c3c(cc(O)c2c1=O)OC(C)(C)C=C3 [MORUSIN]" target_system="3',5'-cyclic-AMP phosphodiesterase 4D (Homo sapiens, UniProt Q08499)" metric=pIC50 recorded_result=6.05
compound=CC(C)C[C@@H]1Oc2cc(O)ccc2-c2oc3c4c(cc(O)c3c(=O)c21)OC(C)(C)CC4 target_system="3',5'-cyclic-AMP phosphodiesterase 4D (Homo sapiens, UniProt Q08499)" metric=pIC50 recorded_result=5.12
compound=CC(C)=CCC/C(C)=C/Cc1c(O)ccc([C@@H]2CC(=O)c3c(O)cc(O)cc3O2)c1O target_system="3',5'-cyclic-AMP phosphodiesterase 4D (Homo sapiens, UniProt Q08499)" metric=pIC50 recorded_result=5.63
compound="CC(C)=CCc1c(-c2ccc(O)cc2O)oc2c(CC=C(C)C)c(O)cc(O)c2c1=O [KUWANON C]" target_system="3',5'-cyclic-AMP phosphodiesterase 4D (Homo sapiens, UniProt Q08499)" metric=pIC50 recorded_result=6.51
compound=COc1ccc2c(c1)O[C@@H](C=C(C)C)c1c-2oc2c3c(cc(O)c2c1=O)OC(C)(C)C=C3 target_system="3',5'-cyclic-AMP phosphodiesterase 4D (Homo sapiens, UniProt Q08499)" metric=pIC50 recorded_result=5.07
compound="COC1CC(C)(C)Oc2cc(O)c3c(=O)c(CC=C(C)C)c(-c4ccc(O)cc4O)oc3c21 (configuration not stated)" target_system="3',5'-cyclic-AMP phosphodiesterase 4D (Homo sapiens, UniProt Q08499)" metric=pIC50 recorded_result=7.70
